Can you tell me inhibition at 20 µM for the items I'm about to list?
Target: KRas G12C mutant (Homo sapiens (Human), UniProt P01116, G12C)
Sequence (P01116-2 other isoform, or with tags, fused parts or gaps G12C): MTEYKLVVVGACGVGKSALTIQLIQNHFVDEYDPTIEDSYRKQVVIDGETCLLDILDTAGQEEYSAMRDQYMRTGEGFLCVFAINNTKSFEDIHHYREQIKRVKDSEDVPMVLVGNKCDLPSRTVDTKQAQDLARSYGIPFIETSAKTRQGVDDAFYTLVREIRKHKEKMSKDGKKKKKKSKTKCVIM
Assay: Ras GTP binding domain inhibition assay (labeled GTP)
Details: 20 μM compound; KRas G12C; read-out: % Inhibition at 20 μM of K-Ras mutant and wild-type protein, KRas G12C

- Oc1nc(-c2ccccn2)nc2c1c(-c1ccccc1)nn2-c1ccccn1 [drawing 3539]: 51 to 75%

Each of the following entries comes with a recorded value; kindly state inhibition at 20 µM for each.
1. O=c1[nH]c(-c2ccccn2)nc2c([C@@H]3O[C@H](CO)[C@@H](O)[C@H]3O)csc12 [drawing 3527]
2. COCCNc1nc(-c2nccn2C)nc2sc(-c3ccccc3)c(-c3ccccc3Cl)c12 [drawing 3580]
3. CC(C)COc1ccc(-c2csc3c(O)nc(-c4cn(C)cn4)nc23)cn1 [drawing 3605]
4. COc1ccc(-c2c(C)sc3c(O)nc(-c4nccn4C)nc23)cn1 [drawing 3601]
5. COCC(C)Nc1nc(-c2nccn2C)nc2sc(-c3ccccc3)c(-c3ccccc3)c12 (stereo not shown) [drawing 3577]

["51 to 75%", "25 to 50%", "25 to 50%", "1 to 25%", "1 to 25%"]

Each of the following entries comes with a recorded value; kindly state inhibition at 20 µM for each.
1. Oc1nc(-c2ccncn2)nc2c(-c3cccc(C(F)(F)F)c3)csc12 [drawing 3607]
2. CCOCCOc1nc(-c2nccn2C)nc2sc(-c3ccccc3)c(-c3ccccc3)c12 [drawing 3572]
3. Nc1cccc(-c2csc3c(O)nc(-c4ccccn4)nc23)n1 [drawing 3514]

1. 25 to 50%
2. 0%
3. 25 to 50%

Each of the following entries comes with a recorded value; kindly state inhibition at 20 µM for each.
1. Cc1sc2c(O)nc(-c3nccn3C)nc2c1-c1ccccc1 [drawing 3594]
2. CC(CO)Nc1nc(-c2nccn2C)nc2sc(-c3ccccc3)c(-c3ccccc3)c12 (stereo not shown) [drawing 3578]
3. Cn1ccnc1-c1nc(O)c2scc(-c3ccccc3)c2n1 [drawing 3614]
4. Cn1cnc(-c2nc(O)c3scc(-c4cccc(C(F)(F)F)c4)c3n2)c1 [drawing 3604]
5. CC(C)COc1ccc(-c2c(-c3ccccc3)sc3c(O)nc(-c4nccn4C)nc23)cn1 [drawing 3587]
6. CC(C)COc1ccc(-c2csc3c(O)nc(-c4nccn4C)nc23)cn1 [drawing 3612]
7. CC(C)c1csc2c(O)nc(-c3ccccn3)nc12 [drawing 3487]

1. 25 to 50%
2. 25 to 50%
3. 25 to 50%
4. 25 to 50%
5. 25 to 50%
6. 25 to 50%
7. 51 to 75%

====

Target: KRas G12D mutant protein (Homo sapiens (Human), UniProt P01116, G12D)
Sequence (P01116-2 other isoform, or with tags, fused parts or gaps G12D): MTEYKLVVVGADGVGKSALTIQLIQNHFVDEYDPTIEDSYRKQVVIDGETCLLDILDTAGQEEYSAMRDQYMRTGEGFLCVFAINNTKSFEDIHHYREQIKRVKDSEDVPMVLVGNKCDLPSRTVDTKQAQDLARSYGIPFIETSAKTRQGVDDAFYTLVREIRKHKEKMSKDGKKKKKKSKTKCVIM
Assay: Ras GTP binding domain inhibition assay (labeled GTP)
Settings: 20 μM compound; KRas G12D; read-out: % Inhibition at 20 μM of K-Ras mutant and wild-type protein, KRas G12D
Can you tell me inhibition at 20 µM for the items I'm about to list?

# annotated cases, reported inhibition at 20 µM shown
- COCCNc1nc(-c2cccc(N)n2)nc2sc(-c3ccccc3)c(-c3ccccc3)c12 [drawing 3591]: 0%
- CC(C)c1csc2c(O)nc(-c3ccccn3)nc12 [drawing 3487]: 51 to 75%
- COCCNc1nc(-c2nccn2C)nc2sc(C3CCOCC3)c(-c3ccccc3)c12 [drawing 3590]: 51 to 75%
- O=c1[nH]c(-c2ccccn2)nc2c([C@@H]3O[C@H](CO)[C@@H](O)[C@H]3O)csc12 [drawing 3527]: 25 to 50%
- Cc1sc2c(O)nc(-c3ccccn3)nc2c1-c1ccccc1Cl [drawing 3515]: 51 to 75%
- Oc1nc(-c2ccccn2)nc2c(C3CCC3)csc12 [drawing 3478]: 51 to 75%

Each of the following entries comes with a recorded value; kindly state inhibition at 20 µM for each.
1. CCOCCNc1nc(-c2nccn2C)nc2sc(-c3ccccc3)c(-c3ccccc3)c12 [drawing 3575]
2. Oc1nc(-c2ccccn2)nc2cc(-c3ccccc3)sc12 [drawing 3562]
3. Cn1ccnc1-c1nc(NCCOC(F)(F)F)c2c(-c3ccccc3)c(-c3ccccc3)sc2n1 [drawing 3568]
4. COc1ccc(-c2c(-c3ccccc3)sc3c(O)nc(-c4nccn4C)nc23)cn1 [drawing 3593]

1: 51 to 75%; 2: 51 to 75%; 3: 25 to 50%; 4: 1 to 25%

====

Biological target: KRas G12C/Q61H double mutant (Homo sapiens (Human), UniProt P01116, G12C/Q61H)
Sequence (P01116-2 other isoform, or with tags, fused parts or gaps G12C/Q61H): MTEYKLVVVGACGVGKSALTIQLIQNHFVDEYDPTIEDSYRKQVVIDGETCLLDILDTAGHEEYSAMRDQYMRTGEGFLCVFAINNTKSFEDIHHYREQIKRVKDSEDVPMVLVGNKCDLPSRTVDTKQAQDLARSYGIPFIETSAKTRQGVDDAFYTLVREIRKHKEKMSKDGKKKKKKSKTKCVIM
Assay: Ras GTP binding domain inhibition assay (labeled GTP)
Conditions: 20 μM compound; KRas G12C/Q61H double mutant; read-out: % Inhibition at 20 μM of K-Ras mutant and wild-type protein, KRas G12C Q61H
Can you tell me inhibition at 20 µM for the items I'm about to list?

# annotated cases, reported inhibition at 20 µM shown
• COCCNc1nc(-c2ccccn2)nc2c1c(-c1ccccc1)nn2-c1ccccn1 [drawing 3538] = 76 to 100%
• Cc1sc2c(O)nc(-c3ccccn3)nc2c1C(=O)N1CCN(c2ccccc2)CC1 [drawing 3508] = 51 to 75%
• Nc1nc(O)c2sc(-c3cccc(C(=O)NC4CCNC4=O)c3)cc2n1 (stereo not shown) [drawing 3542] = 1 to 25%

Each of the following entries comes with a recorded value; kindly state inhibition at 20 µM for each.
1. COC(=O)c1sc2c(O)nc(-c3ccccn3)nc2c1C [drawing 3476]
2. COc1cnc(CNC(=O)c2cc3nc(-c4ccccn4)nc(O)c3s2)[nH]c1=O [drawing 3521]
3. COC(=O)c1c(C)sc2nc(-c3ccccn3)nc(N)c12 [drawing 3485]
4. Oc1nc(-c2ccccn2)nc2c(CC3CCNC3)csc12 (stereo not shown) [drawing 3526]
5. Oc1nc(-c2ccccn2)nc2c(-c3ccccc3)c(-c3ccncc3)sc12 [drawing 3548]

1: 51 to 75%; 2: 51 to 75%; 3: 25 to 50%; 4: 51 to 75%; 5: 0%

Each of the following entries comes with a recorded value; kindly state inhibition at 20 µM for each.
1. Oc1nc(-c2ccccn2)nc2c1c(-c1ccccc1)nn2-c1ccccn1 [drawing 3539]
2. COc1cnc(-c2ccccn2)nc1O [drawing 3469]
3. COc1nc(-c2ccccn2)nc2c(C3CC3)csc12 [drawing 3489]
4. Oc1nc(-c2ccccn2)nc2c3c(sc12)CNC3 [drawing 3477]
5. COc1cnc(CNC(=O)c2csc3c(O)nc(-c4ccccn4)nc23)[nH]c1=O [drawing 3520]
6. COc1cnc(C2(N)CCCC2)nc1O [drawing 3490]

1: 51 to 75%; 2: 76 to 100%; 3: 0%; 4: 76 to 100%; 5: 25 to 50%; 6: 1 to 25%

====

Target: KRas G12C/Q61H double mutant (Homo sapiens (Human), UniProt P01116, G12C/Q61H)
Assay: Ras GTP binding domain inhibition assay (labeled GTP)
Settings: 20 μM compound; read-out: % Inhibition at 20 μM KRas G12C Q61H
MEASUREMENT KIND: inhibition at 20 µM

- O=C(c1csc2c(O)nc(-c3ccccn3)nc12)N1CCNC(c2ccccc2Cl)C1 (stereo not drawn) [drawing 2806]: 51 to 75%
- O=C(NCCc1ccnc(O)c1)c1csc2nc(-c3ccccn3)nc(N3CCOCC3)c12 [drawing 2783]: 1 to 25%

Each of the following entries comes with a recorded value; kindly state inhibition at 20 µM for each.
1. COc1cc(C)c(-c2csc3c(O)nc(-c4ccccn4)nc23)cc1C [drawing 2869]
2. CN1CCN(c2nc(-c3ccccn3)nc3scc(C(=O)NCCc4cnc(O)nc4)c23)CC1 [drawing 2899]
3. Oc1nc(-c2ccccn2)nc2c(-c3ccccc3F)csc12 [drawing 2868]
4. COc1ccc(N2CCN(C(=O)c3csc4c(O)nc(-c5ccccn5)nc34)CC2)c(OC)c1 [drawing 2759]
5. COCc1ccc(-c2csc3c(O)nc(-c4ccccn4)nc23)cc1F [drawing 2846]
6. Oc1nc(-c2ccccn2)nc2c(-c3ccccn3)csc12 [drawing 2896]

1. 1 to 25%
2. 51 to 75%
3. 51 to 75%
4. 51 to 75%
5. 51 to 75%
6. 51 to 75%

====

Molecular target: Rho-A (Homo sapiens (Human))
Sequence (P61586 whole entry): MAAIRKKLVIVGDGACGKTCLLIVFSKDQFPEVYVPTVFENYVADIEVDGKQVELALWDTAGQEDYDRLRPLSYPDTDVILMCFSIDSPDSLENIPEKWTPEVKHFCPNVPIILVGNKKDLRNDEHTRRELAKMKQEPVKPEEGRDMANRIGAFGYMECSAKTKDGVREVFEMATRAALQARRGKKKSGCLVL
Experiment: Rho inhibition assay (labeled GTP)
Assay type: binding
Conditions: read-out: Rho-A % Inh.
Can you tell me inhibition at 20 µM for the items I'm about to list?

# annotated cases, reported inhibition at 20 µM shown
- Nc1nc(O)c2sc(-c3cccc(C(=O)N4CCC(O)C4)c3)cc2n1 (stereo not shown) [drawing 3861]: 1 to 25%
- Oc1nc(-c2ccccn2)nc2c(-c3cncc(C(F)F)c3)csc12 [drawing 3826]: 0%
- CC(c1ccccc1)N1CCN(C(=O)c2csc3c(O)nc(-c4ccccn4)nc23)CC1 (stereo not shown) [drawing 3693]: 76 to 100%

Please find the next compound below.
Recorded inhibition at 20 µM for CC(C)OCCNc1nc(-c2nccn2C)nc2sc(-c3ccccc3)c(-c3ccccc3)c12 [drawing 3885] , please? 25 to 50%

These data points were gathered from patent US10940139B2.
